This collection of values is drawn from PubChem BioAssay.

Molecular target: Focal adhesion kinase 1 (Homo sapiens)
Assay: small-molecule microarray binders of FAK, primary screen, biochemical, 635/667 nm fluorescence, BSA, DTT (AID 1130);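 further: composite of spot emission at 667 nm and signal to noise over triplicate slides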
Conditions: PTK2 binding, 635 nm fluorescence, higher = more signal
value.kind: composite z-score
One number for each entry.

Worked cases, composite z-score given:
1) NC(N)=NCc1cn(CCc2c[nH]c3ccccc23)nn1 | 0.0313
2) O=C1O[C@@H](c2ccccc2)[C@@H](c2ccccc2)N2[C@@H](c3ccccc3OCCO)[C@]3(C(=O)Nc4ccc(C#CC5=CCCCC5)cc43)[C@@H](C(=O)NC[C@H](O)c3ccccc3)[C@H]12 | 0.0363
3) C=CCOC(=O)[C@H]1[C@@H]2C(=O)O[C@@H](c3ccccc3)[C@@H](c3ccccc3)N2[C@@H](c2ccc(OCCOC(=O)[C@H]3C[C@H]4C(=O)N[C@@H](CCCC[N+](C)(C)C)C(=O)N4[C@H]3c3cccc(OCCO)c3)cc2)[C@]12C(=O)Nc1ccc(I)cc12 | 0.293
4) C[C@]1(C(=O)NC2CC2)c2ccccc2C(=O)N(Cc2ccc(OC(F)(F)F)cc2)[C@H]1c1ccc(CO)cc1 | 0.576

Please go through the list and note composite z-score for each compound.
1. CO[C@H]1O[C@H](CO)[C@@H](OC(=O)Nc2ccc(C(F)(F)F)cc2)[C@H](OC(=O)Nc2ccc3c(c2)OCO3)[C@H]1OC(=O)Nc1ccc2c(c1)OCO2
2. O=C1c2ccccc2[C@@]2(Cc3ccccc3N(C3CC3)C2=O)[C@H](c2ccc(CO)cc2)N1C1CCCCC1
3. CCN(CC)c1ccc(N2CC=CC34O[C@@H]5/C=C\CCC(C)OC(=O)C5[C@H]3C(=O)N(CCO)[C@@H]4C2=O)cc1 (stereo partly drawn)
4. O=C1O[C@@H](c2ccccc2)[C@@H](c2ccccc2)N2[C@@H](c3ccccc3OCCO)[C@]3(C(=O)Nc4ccc(C#CCCO)cc43)[C@@H](C(=O)Nc3nc4ccccc4s3)[C@H]12
5. C[C@]1(C(=O)O)c2ccccc2C(=O)N(Cc2ccccc2)[C@H]1c1ccc(CO)cc1
6. COCCCNC(=O)[C@@H]1c2ccccc2C(=O)N(Cc2ccccc2C(F)(F)F)[C@H]1c1ccc(CO)cc1

[1.33, -0.375, 0.235, 0.487, 0.343, 0.278]

Parameter requested: composite z-score. Apply to each item below.
1. CCCCC(CC)C(O)C1C=CC2C(=O)N(c3ccccc3)C(=O)C2N1Nc1ccc([N+](=O)[O-])cc1 (stereo not drawn)
2. [N-]=[N+]=NCc1ccccc1C[C@@]1(C(=O)NCCN2CCOCC2)N=C(c2ccc(OCCCO)cc2)O[C@@H]1c1ccccc1N=[N+]=[N-]
3. COCCOC(=O)N1C(=O)[C@@]2(c3cc(C#CC4(O)CCCCCC4)ccc31)[C@H](C(N)=O)[C@H]1C(=O)O[C@H](c3ccccc3)[C@H](c3ccccc3)N1[C@@H]2c1ccc(O)cc1

1: 0.623; 2: 1.05; 3: 0.124
